molecular target: NS5B 5a isolate 4 (Hepatitis C virus genotype 5a, UniProt O39928); test: Enzyme binding affinity, SPR (Biacore)
pKd: −log10 of the molar value.
PROPERTY_LABEL: pKd

[[record]]
molecule = "COc1ccc2c(c1)C=C1Cn3c-2c(C2CCCCC2)c2ccc(cc23)C(=O)NS(=O)(=O)N(C)CCOCCN(C)C1=O [Compound 1]"
test_value = 7.66


###

As shown below, each of these compounds has a reported EC50 value.
system: HCV type 1b replicon in Huh-7 luc/neo (Huh-Luc) cells; test: HCV replicon assay (Huh-Luc, luciferase); conditions: Hepatitis C virus, Huh-7, 72 h
PROPERTY_LABEL: EC50 (nM)

[[record]]
compound = "CC1=C2Cn3c(c(C4CCCCC4)c4ccc(cc43)C(=O)NS(=O)(=O)N(C)CCOCCN(C)C2=O)-c2ccc(F)cc21"
study_target = "HCV type 1b replicon in Huh-7 luc/neo (Huh-Luc) cells"
property_label = "EC50"
test_value = 81

[[record]]
compound = "COc1ccc2c(c1)C1CC13Cn1c-2c(C2CCCCC2)c2ccc(cc21)C(=O)NS(=O)(=O)N(C)CCCCNC3=O (stereo not shown)"
study_target = "HCV type 1b replicon in Huh-7 luc/neo (Huh-Luc) cells"
property_label = "EC50"
test_value = 60

[[record]]
compound = "COc1ccc2c(c1)C=C1Cn3c-2c(C2CCCCC2)c2ccc(cc23)C(=O)NS(=O)(=O)NCCN(C)CCNC1=O"
study_target = "HCV type 1b replicon in Huh-7 luc/neo (Huh-Luc) cells"
property_label = "EC50"
test_value = 470

[[record]]
compound = "COc1ccc2c(c1)C=C1Cn3c-2c(C2CCCCC2)c2ccc(cc23)C(=O)NS(=O)(=O)N(C)CCCCCCN(C)C1=O"
study_target = "HCV type 1b replicon in Huh-7 luc/neo (Huh-Luc) cells"
property_label = "EC50"
test_value = 160

[[record]]
compound = "COc1ccc2c(c1)C=C1Cn3c-2c(C2CCCCC2)c2ccc(cc23)C(=O)NS(=O)(=O)N(C)CCN(C)CCNC1=O"
study_target = "HCV type 1b replicon in Huh-7 luc/neo (Huh-Luc) cells"
property_label = "EC50"
test_value = 550

[[record]]
compound = "CN1CCOCCN(C)S(=O)(=O)NC(=O)c2ccc3c(C4CCCCC4)c4n(c3c2)CC(=Cc2cc(F)ccc2-4)C1=O"
study_target = "HCV type 1b replicon in Huh-7 luc/neo (Huh-Luc) cells"
property_label = "EC50"
test_value = 72

[[record]]
compound = "COc1ccc2c(c1)C=C1Cn3c-2c(C2CCCCC2)c2ccc(cc23)C(=O)NS(=O)(=O)N(C)CCCCNC1=O"
study_target = "HCV type 1b replicon in Huh-7 luc/neo (Huh-Luc) cells"
property_label = "EC50"
test_value = 912


###

molecular target: NS5B 6a isolate 5 (Hepatitis C virus genotype 6a, UniProt O39927); experiment: biochemical
PROPERTY_LABEL: Kd (µM)

[[record]]
compound_structure_string = "COc1ccc2c(c1)C=C1Cn3c-2c(C2CCCCC2)c2ccc(cc23)C(=O)NS(=O)(=O)N(C)CCOCCN(C)C1=O"
property_label = "Kd"
test_value = 0.032


###

Recorded IC50 for the following molecules
target: HCV NS5B 1bJ4 (Hepatitis C virus genotype 1b (strain HC-J4) (HCV)); test: Inhibition assay with NS5b 1bJ4 (RdRp, SPA); details: 50 nM NS5B 1bJ4 enzyme, radiolabeled GTP incorporation
PROPERTY_LABEL: IC50

[[record]]
molecule = "COc1ccc2c(c1)C1CC13Cn1c-2c(C2CCCCC2)c2ccc(cc21)C(=O)NS(=O)(=O)N(C)CCCCNC3=O (centres unmarked) [Compound 10]"
test_value = "280 nM"

[[record]]
molecule = "COc1ccc2c(c1)C=C1Cn3c-2c(C2CCCCC2)c2ccc(cc23)C(=O)NS(=O)(=O)N(C)CC=CCNC1=O [Compound 13]"
test_value = "190 nM"

[[record]]
molecule = "COc1ccc2c(c1)C1CC13Cn1c-2c(C2CCCCC2)c2ccc(cc21)C(=O)NS(=O)(=O)N(C)C/C=C/CCNC3=O (centres unmarked) [Compound 12]"
test_value = "930 nM"

[[record]]
molecule = "COc1ccc2c(c1)C=C1Cn3c-2c(C2CCCCC2)c2ccc(cc23)C(=O)NS(=O)(=O)N2CCN(CCNC1=O)CC2 [Compound 5]"
test_value = "290 nM"

[[record]]
molecule = "COc1ccc2c(c1)C1CC13Cn1c-2c(C2CCCCC2)c2ccc(cc21)C(=O)NS(=O)(=O)N(C)CCN1CCN(CC1)C3=O (centres unmarked) [Compound 11]"
test_value = "220 nM"


###

Quick reference for IC50 among some compounds
target: HCV NS5B con1b (Hepatitis C virus genotype 1b (isolate Con1) (HCV), UniProt Q9WMX2); assay: RNA-dependent RNA polymerase assay NS5B con1b; conditions: read-out: IC50 Con1b; 20 nM Con1b NS5B enzyme, primer-dependent transcription assay
Sequence (Q9WMX2 whole entry, looked up): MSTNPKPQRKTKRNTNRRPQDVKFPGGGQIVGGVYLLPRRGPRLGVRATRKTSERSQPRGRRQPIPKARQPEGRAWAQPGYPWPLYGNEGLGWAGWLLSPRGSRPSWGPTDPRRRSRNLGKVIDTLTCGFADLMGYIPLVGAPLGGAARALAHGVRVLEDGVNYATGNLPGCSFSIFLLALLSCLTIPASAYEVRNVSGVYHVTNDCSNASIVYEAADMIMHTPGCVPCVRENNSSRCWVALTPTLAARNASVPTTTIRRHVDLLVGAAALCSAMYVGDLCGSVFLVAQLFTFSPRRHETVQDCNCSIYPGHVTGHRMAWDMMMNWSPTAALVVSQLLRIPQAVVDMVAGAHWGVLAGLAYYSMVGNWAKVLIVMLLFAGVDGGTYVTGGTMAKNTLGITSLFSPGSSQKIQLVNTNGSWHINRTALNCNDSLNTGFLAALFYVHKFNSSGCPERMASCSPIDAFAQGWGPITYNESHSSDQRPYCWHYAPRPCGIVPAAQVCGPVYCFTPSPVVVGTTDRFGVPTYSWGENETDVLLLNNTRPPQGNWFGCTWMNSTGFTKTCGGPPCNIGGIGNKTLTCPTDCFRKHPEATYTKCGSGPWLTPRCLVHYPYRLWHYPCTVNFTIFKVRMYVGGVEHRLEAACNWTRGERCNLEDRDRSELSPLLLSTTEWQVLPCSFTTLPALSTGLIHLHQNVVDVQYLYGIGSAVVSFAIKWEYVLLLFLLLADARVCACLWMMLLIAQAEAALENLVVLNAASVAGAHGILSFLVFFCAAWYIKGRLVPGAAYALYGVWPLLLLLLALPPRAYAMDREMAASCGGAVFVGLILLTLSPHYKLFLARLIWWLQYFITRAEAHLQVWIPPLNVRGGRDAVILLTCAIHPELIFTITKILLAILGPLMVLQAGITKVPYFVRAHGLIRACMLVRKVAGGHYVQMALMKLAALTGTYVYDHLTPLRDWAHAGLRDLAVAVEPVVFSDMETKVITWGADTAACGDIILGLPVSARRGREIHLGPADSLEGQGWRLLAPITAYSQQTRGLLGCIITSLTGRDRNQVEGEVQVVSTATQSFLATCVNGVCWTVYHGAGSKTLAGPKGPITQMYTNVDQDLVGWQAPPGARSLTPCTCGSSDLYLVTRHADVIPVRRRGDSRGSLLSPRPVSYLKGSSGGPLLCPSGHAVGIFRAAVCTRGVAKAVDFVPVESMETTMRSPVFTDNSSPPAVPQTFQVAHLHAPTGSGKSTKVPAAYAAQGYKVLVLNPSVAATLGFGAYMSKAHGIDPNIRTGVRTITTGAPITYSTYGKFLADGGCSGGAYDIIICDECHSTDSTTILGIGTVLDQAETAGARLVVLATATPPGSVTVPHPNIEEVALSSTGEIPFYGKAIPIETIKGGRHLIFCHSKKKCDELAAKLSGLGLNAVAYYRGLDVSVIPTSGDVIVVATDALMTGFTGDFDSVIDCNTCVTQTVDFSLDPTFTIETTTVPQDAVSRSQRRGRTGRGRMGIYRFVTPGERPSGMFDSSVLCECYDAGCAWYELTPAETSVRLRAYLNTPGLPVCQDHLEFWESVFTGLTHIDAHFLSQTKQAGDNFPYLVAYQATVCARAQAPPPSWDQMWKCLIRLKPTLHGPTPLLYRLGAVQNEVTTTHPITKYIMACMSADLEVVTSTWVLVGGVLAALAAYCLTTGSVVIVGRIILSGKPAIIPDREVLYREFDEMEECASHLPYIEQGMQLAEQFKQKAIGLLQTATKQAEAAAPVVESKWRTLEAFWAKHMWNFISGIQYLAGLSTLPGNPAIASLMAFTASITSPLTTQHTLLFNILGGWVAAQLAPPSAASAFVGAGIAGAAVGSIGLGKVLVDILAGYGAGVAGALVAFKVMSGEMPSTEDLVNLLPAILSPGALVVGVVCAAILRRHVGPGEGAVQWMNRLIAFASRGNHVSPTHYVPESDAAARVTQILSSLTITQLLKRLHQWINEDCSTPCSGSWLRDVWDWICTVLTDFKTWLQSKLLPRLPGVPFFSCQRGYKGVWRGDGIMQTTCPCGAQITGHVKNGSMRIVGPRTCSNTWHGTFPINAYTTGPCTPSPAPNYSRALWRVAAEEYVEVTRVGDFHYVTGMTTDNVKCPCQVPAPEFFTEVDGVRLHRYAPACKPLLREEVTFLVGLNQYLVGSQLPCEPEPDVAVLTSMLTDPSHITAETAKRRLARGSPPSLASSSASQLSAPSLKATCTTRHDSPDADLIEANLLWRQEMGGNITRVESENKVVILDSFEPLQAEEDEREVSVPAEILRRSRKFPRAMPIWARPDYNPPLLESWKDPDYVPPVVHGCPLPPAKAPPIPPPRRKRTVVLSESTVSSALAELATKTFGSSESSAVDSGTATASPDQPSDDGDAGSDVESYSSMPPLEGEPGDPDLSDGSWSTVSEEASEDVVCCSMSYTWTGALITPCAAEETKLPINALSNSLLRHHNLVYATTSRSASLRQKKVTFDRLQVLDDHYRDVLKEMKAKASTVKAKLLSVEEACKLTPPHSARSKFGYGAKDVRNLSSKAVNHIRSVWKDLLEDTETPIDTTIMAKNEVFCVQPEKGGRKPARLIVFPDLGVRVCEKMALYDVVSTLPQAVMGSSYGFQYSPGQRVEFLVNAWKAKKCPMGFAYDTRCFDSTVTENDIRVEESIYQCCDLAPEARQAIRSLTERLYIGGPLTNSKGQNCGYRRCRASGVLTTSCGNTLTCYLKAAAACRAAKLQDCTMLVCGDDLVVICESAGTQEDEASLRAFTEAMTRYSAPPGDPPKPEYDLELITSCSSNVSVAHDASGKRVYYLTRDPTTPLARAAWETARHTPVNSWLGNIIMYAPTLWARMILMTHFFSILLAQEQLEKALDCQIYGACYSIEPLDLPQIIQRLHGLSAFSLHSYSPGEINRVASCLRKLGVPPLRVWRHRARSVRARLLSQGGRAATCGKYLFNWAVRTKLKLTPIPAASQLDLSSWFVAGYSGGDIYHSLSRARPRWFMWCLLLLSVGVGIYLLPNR
PROPERTY_LABEL: IC50 (nM)

[[record]]
compound_structure_string = "CC1=C2Cn3c(c(C4CCCCC4)c4ccc(cc43)C(=O)NS(=O)(=O)N(C)CCOCCN(C)C2=O)-c2ccc(F)cc21"
property_label = "IC50"
test_value = 38

[[record]]
compound_structure_string = "CN1CCOCCN(C)S(=O)(=O)NC(=O)c2ccc3c(C4CCCCC4)c4n(c3c2)CC(=Cc2cc(F)ccc2-4)C1=O"
property_label = "IC50"
test_value = 31


###

system: HCV type 1b replicon in Huh-7 luc/neo (Huh-Luc) cells; test: HCV replicon assay (Huh-Luc, luciferase); settings: Hepatitis C virus, Huh-7, 72 h
We begin with a simple list: items and their reported EC50.
PROPERTY_LABEL: EC50 (nM)

[[record]]
compound_structure_string = "COc1ccc2c(c1)C=C1Cn3c-2c(C2CCCCC2)c2ccc(cc23)C(=O)NS(=O)(=O)N(C)CCCCCNC1=O"
units_of_measure = "nM"
test_value = 130

[[record]]
compound_structure_string = "COc1ccc2c(c1)C=C1Cn3c-2c(C2CCCCC2)c2ccc(cc23)C(=O)NS(=O)(=O)N2CCN(CCNC1=O)CC2"
units_of_measure = "nM"
test_value = 920

[[record]]
compound_structure_string = "CN1CCCCN(C)S(=O)(=O)NC(=O)c2ccc3c(C4CCCCC4)c4n(c3c2)CC(=Cc2ccc(Cl)cc2-4)C1=O"
units_of_measure = "nM"
test_value = 14500

[[record]]
compound_structure_string = "COc1ccc2c(c1)C=C1Cn3c-2c(C2CCCCC2)c2ccc(cc23)C(=O)NS(=O)(=O)NCCCCN(C)C1=O"
units_of_measure = "nM"
test_value = 550


###

test system: HCV type 1b replicon in Huh-7 luc/neo (Huh-Luc) cells; experiment: HCV replicon assay (Huh-Luc, luciferase); conditions: Hepatitis C virus, Huh-7, 72 h
pEC50: −log10 of the molar value.
PROPERTY_LABEL: pEC50

[[record]]
compound = "COc1ccc2c(c1)[C@@H]1C[C@]13Cn1c-2c(C2CCCCC2)c2ccc(cc21)C(=O)NS(=O)(=O)N(C)CCOCCN(C)C3=O"
test_value = 7.40

[[record]]
compound = "COc1ccc2c(c1)C1CC13Cn1c-2c(C2CCCCC2)c2ccc(cc21)C(=O)NS(=O)(=O)N(C)CCN1CCN(CC1)C3=O (stereo not drawn)"
test_value = 7.26

[[record]]
compound = "COc1ccc2c(c1)C1CC13Cn1c-2c(C2CCCCC2)c2ccc(cc21)C(=O)NS(=O)(=O)N(C)C/C=C/CCNC3=O (stereo not drawn)"
test_value = 6.54

[[record]]
compound = "COc1ccc2c(c1)C=C1Cn3c-2c(C2CCCCC2)c2ccc(cc23)C(=O)NS(=O)(=O)N(C(C)C)CCCCN(C)C1=O"
test_value = 6.48

[[record]]
compound = "COc1ccc2c(c1)C=C1Cn3c-2c(C2CCCCC2)c2ccc(cc23)C(=O)NS(=O)(=O)N(C)CCN2CCN(CC2)C1=O"
test_value = 6.74

[[record]]
compound = "CN1CCCCCNC(=O)C2=Cc3ccc(Cl)cc3-c3c(C4CCCCC4)c4ccc(cc4n3C2)C(=O)NS1(=O)=O"
test_value = 4.99


###

target: NS5B 4a isolate 1 (Hepatitis C virus genotype 4a, UniProt O39929); assay: biochemical
pKd: −log10 of the molar value.
PROPERTY_LABEL: pKd

[[record]]
compound_structure_string = "COc1ccc2c(c1)C=C1Cn3c-2c(C2CCCCC2)c2ccc(cc23)C(=O)NS(=O)(=O)N(C)CCOCCN(C)C1=O"
test_value = 8.68

